- assayExplanation: changes in parasitized red cell lysis, either direction – P. falciparum Indochina, OD700, 3 h, PSAC antagonist project, primary screen (AID 1156)
- recordedConditions: P. falciparum-infected erythrocytes, osmotic lysis, higher = more signal, called active from +8 up or from −8 down

smilesRepr	z-score
COC(=O)[C@H]1N=C(c2ccc(OCCCO)cc2)O[C@H]1c1ccccc1CN=[N+]=[N-]	1.35
COc1cccc(C)c1NC(=O)O[C@H]1[C@H](OC(=O)Nc2ccccc2)[C@H](OC(=O)Nc2ccccc2)[C@@H](OC)O[C@@H]1CO	-0.446
COc1cc2c(cc1OC)CN(C(=O)[C@@H]1[C@H]3C(=O)O[C@H](c4ccccc4)[C@H](c4ccccc4)N3[C@H](c3ccc(O)cc3)[C@@]13C(=O)Nc1ccc(C#CCNC(N)=O)cc13)CC2	-0.83
